assay: Selectivity index, ratio of MCC for MDCK cells to EC50 for Influenza A virus (A/Hong Kong/7/1987(H3N2)); format: toxicity, cell-based; details: dog, read-out: Selectivity Index
experimentalReadout: selectivity ratio
Answer field: number only, no words.

>>> recordedmeasurement("NCC1(CO)C2CC3CC(C2)CC1C3 (stereo not drawn)")
256
>>> recordedmeasurement("NCCC12CC3CC(CC(C3)C1O)C2 (stereo not drawn)")
60
>>> recordedmeasurement("NCCC1(O)CC2CC3CC(C2)C1C3 (stereo not drawn)")
67
>>> recordedmeasurement("NCCC1(O)C2CC3CC(C2)CC1C3 (stereo not drawn)")
3

# input compound: NC1CC2CC3CC(C2)C1C3 (stereo not drawn) ; wanted: its selectivity ratio
69

---

system: H3N2 subtype; experiment: Antiviral activity against Influenza A virus (A/Hong Kong/7/1987(H3N2)) infected in MDCK cells assessed as inhibition of virus-induced cytopathogenicity by MTS assay; assay type: functional, organism-based
Reported EC50 by item:
Kindly answer with a numeric value in nM, unit omitted.

// worked examples, EC50 included
>>> recordedmeasurement("NCCC12CC3CC(CC(C3)C1O)C2 (centres undefined)")
8600
>>> recordedmeasurement("NC(=O)c1ncn([C@@H]2O[C@H](CO)[C@@H](O)[C@H]2O)n1")
8700
>>> recordedmeasurement("NC12CC3CC(CC(C3)C1)C2")
2000

Under H3N2 subtype: EC50 value of NCCC1(O)C2CC3CC(C2)CC1C3 (centres undefined) ?
6240

Let us now turn to NC1(CO)C2CC3CC(C2)CC1C3 (centres undefined)
1460

Let us now turn to NCC1(CO)C2CC3CC(C2)CC1C3 (centres undefined)
340

Let us now turn to NC1CC2CC3CC(C2)C1C3 (centres undefined)
1500

Let us now turn to NCCC1(O)CC2CC3CC(C2)C1C3 (centres undefined)
7680

---

test: Cytotoxicity against MDCK cells by MTS assay; assay type: cell-based, Canis lupus familiaris; details: dog
experimentalReadout: log10 MCC (log10 of the value in µM)
Please note: log10 values; quantity MCC; unit µM.

// worked examples, log10 MCC included
>>> recordedmeasurement("NCCC1(O)CC2CC3CC(C2)C1C3 (stereo not given)")
2.71
>>> recordedmeasurement("NCCC12CC3CC(CC(C3)C1O)C2 (stereo not given)")
2.71
>>> recordedmeasurement("NCCC1(O)C2CC3CC(C2)CC1C3 (stereo not given)")
1.23
>>> recordedmeasurement("OC1(C2CCCCN2)C2CC3CC(C2)CC1C3 (stereo not given)")
2.32
>>> recordedmeasurement("CNC(CN)C12CC3CC(CC(C3)C1)C2 (stereo not given)")
2.61
>>> recordedmeasurement("CNC1(c2ccccn2)C2CC3CC(C2)CC1C3 (stereo not given)")
2.42
>>> recordedmeasurement("NC1CC2CC3CC(C2)C1C3 (stereo not given)")
2.03
>>> recordedmeasurement("NC1C2CC3CC(C2)CC1(c1ccccc1)C3 (stereo not given)")
2.34

--- query ---
# input compound: NCC1(CO)C2CC3CC(C2)CC1C3 (stereo not given) ; wanted: its log10 MCC
1.94

---

Reported IC50 by item:
tested on: Trypanosoma brucei; assay: Antiparasitic activity against Trypanosoma brucei 427 bloodstream forms assessed as inhibition of parasite growth after 48 hrs; assay type: functional, organism-based; details: Trypanosoma brucei, 427, 48 h; read-out: IC50
Kindly answer with a numeric value in µM, unit omitted.

// worked examples, IC50 included
>>> recordedmeasurement("CNC(CN)C12CC3CC(CC(C3)C1)C2 (stereo unspecified)")
5.2
>>> recordedmeasurement("CN(C)CCC[C@]1(O)CC2CC3CC(C2)C1C3 (stereo partly specified)")
0.84

# input compound: CNC1(c2ccccn2)C2CC3CC(C2)CC1C3 (stereo unspecified) ; wanted: its IC50
24.6

Let us now turn to CN(C)CCCC12CC3CC(CC(C3)C1O)C2 (stereo unspecified)
0.84

Let us now turn to NC1(CO)C2CC3CC(C2)CC1C3 (stereo unspecified)
9.4

Let us now turn to NC1C2CC3CC(C2)CC1(c1ccccc1)C3 (stereo unspecified)
11.1

These data points were gathered from ChEMBL document CHEMBL1275292.
